Recorded pKd values for a group of compounds are listed next.
TARGET OR TEST SYSTEM: S. aureus SPase (Staphylococcus aureus, UniProt P0A070)
Construct: Full length His-tagged S. aureus SPase protein was expressed similarly; His-tag; made in house; host or cells: E. coli BL21(DE3)
MEASUREMENT PROTOCOL: Steady state binding constant (Kd) determination by fluorescence increase
Procedure: Full length His-tagged E. coli SPase proteins were expressed in E. coli BL21(DE3) containing the plasmid pET23-lepB, P. A. Smith et al. Chem Biol 2010, 1223-1231. […] All protein concentrations were determined by BCA assay. Steady state binding constants (Kds) of compounds were determined by measuring an increase in fluorescence (λex=280 nm, λem=405 nm) that occurs upon binding to E. coli or S. aureus SPase protein. […]
pKd: −log10 of the molar value.
READOUT LABEL: pKd

SMILES REPR | READOUT LABEL | NUMERIC VALUE
CCCCCCCCCCCCCCCC(=O)N(C)[C@H](CO)C(=O)N[C@H](C)C(=O)NCC(=O)N(C)[C@@H]1C(=O)N[C@@H](C)C(=O)N[C@H](C(=O)NC)Cc2ccc(O)c(c2)-c2cc1ccc2O | pKd | 6.22
CCCCCCCCCCCCCCCC(=O)N(C)[C@H](CO)C(=O)N[C@H](C)C(=O)NCC(=O)N(C)[C@@H]1C(=O)N[C@@H](C)C(=O)N[C@H](C(=O)N[C@H](C)C(=O)O)Cc2ccc(O)c(c2)-c2cc1ccc2O | pKd | 4.74
CCCCCCCCCCCCCCCC(=O)N(C)[C@H](CO)C(=O)N[C@H](C)C(=O)NCC(=O)N(C)[C@@H]1C(=O)N[C@@H](C)C(=O)N[C@H](C(=O)N[C@@H](C)C(=O)O)Cc2ccc(O)c(c2)-c2cc1ccc2O | pKd | 5.11
CCCCCCCCCCCCCCCC(=O)N(C)[C@H](CO)C(=O)N[C@H](C)C(=O)NCC(=O)N(C)[C@@H]1C(=O)N[C@@H](C)C(=O)N[C@H](C(=O)O)Cc2ccc(O)c(c2)-c2cc1ccc2O | pKd | 6.12

Data origin: patent US10501493B2
